- Tested on: NGalNAc-T1 (Homo sapiens, UniProt Q76KP1)
- Sequence (Q76KP1 62-1039): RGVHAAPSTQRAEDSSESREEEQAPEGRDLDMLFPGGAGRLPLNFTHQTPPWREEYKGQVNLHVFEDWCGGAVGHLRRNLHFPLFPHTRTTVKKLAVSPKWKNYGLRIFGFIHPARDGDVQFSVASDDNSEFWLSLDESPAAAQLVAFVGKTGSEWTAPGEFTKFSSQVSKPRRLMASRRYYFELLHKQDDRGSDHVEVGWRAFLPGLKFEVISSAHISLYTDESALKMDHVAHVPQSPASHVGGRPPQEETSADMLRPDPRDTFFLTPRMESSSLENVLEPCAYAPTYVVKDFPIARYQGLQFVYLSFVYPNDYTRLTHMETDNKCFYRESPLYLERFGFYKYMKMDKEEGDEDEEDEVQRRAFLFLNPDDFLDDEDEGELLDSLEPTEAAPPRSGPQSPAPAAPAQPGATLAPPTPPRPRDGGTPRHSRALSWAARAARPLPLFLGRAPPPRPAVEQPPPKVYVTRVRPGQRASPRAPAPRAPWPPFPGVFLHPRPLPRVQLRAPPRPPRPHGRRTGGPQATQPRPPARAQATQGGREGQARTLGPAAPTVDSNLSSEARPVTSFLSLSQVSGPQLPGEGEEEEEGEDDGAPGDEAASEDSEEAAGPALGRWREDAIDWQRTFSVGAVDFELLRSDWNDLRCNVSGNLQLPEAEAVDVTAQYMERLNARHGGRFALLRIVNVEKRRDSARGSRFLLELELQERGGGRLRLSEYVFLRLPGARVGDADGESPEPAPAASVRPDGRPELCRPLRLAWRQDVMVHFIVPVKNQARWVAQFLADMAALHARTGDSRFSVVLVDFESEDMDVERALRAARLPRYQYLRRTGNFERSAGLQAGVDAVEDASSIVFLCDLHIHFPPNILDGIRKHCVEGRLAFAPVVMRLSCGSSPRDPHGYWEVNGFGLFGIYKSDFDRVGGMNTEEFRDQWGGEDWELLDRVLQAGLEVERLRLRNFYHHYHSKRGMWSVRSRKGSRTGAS
- Measurement description: Assay for acceptor substrates of glycosyl-transferase activities (GalNAc-T assay, HPLC)
- Type: biochemical
- Condition context: Table 6, O-glycan type acceptors 500 μM; GlcNAcβ-Bz = 100
Readout: Relative activity (%)
A number alone suffices; assume %.

Could you tell me which Relative activity (%) is on file for CC(=O)NC1C(OC2C(O)C(CO)OC(Oc3ccc([N+](=O)[O-])cc3)C2NC(C)=O)OC(CO)C(O)C1O (stereo not shown) ? 20.0

Could you tell me which Relative activity (%) is on file for CC(=O)N[C@H]1[C@H](OC[C@H]2O[C@H](Oc3ccc([N+](=O)[O-])cc3)[C@H](NC(C)=O)[C@@H](O[C@@H]3O[C@H](CO)[C@H](O)[C@H](O)[C@H]3O)[C@H]2O)O[C@H](CO)[C@@H](O)[C@@H]1O ? 15.2

Could you tell me which Relative activity (%) is on file for CC(=O)N[C@H]1[C@H](OCc2ccccc2)O[C@H](CO)[C@@H](O)[C@@H]1O ? 100

Could you tell me which Relative activity (%) is on file for CC(=O)N[C@H]1[C@@H](Oc2ccc([N+](=O)[O-])cc2)O[C@H](CO[C@@H]2O[C@H](CO)[C@@H](O)[C@H](O)[C@H]2NC(C)=O)[C@H](O)[C@@H]1O ? 190.7

* * *

Hi there, I'd appreciate the recorded Relative activity (%) for every entry that follows.
- Tested on: NGalNAc-T2 (Homo sapiens, UniProt Q6L9W6, K411R)
- Measurement description: Assay for acceptor substrates of glycosyl-transferase activities (GalNAc-T assay, HPLC)
- Type: biochemical
- Condition context: Table 6, O-glycan type acceptors 500 μM; GlcNAcβ-Bz = 100
A number alone suffices; assume %.

Could you tell me which Relative activity (%) is on file for CC(=O)N[C@H]1[C@H](OCc2ccccc2)O[C@H](CO)[C@@H](O)[C@@H]1O [GlcNAcβ-Bz] ? 100

Could you tell me which Relative activity (%) is on file for CC(=O)N[C@H]1[C@@H](Oc2ccc([N+](=O)[O-])cc2)O[C@H](CO[C@@H]2O[C@H](CO)[C@@H](O)[C@H](O)[C@H]2NC(C)=O)[C@H](O)[C@@H]1O [GlcNAcβ1-6GalNAcα-pNp] ? 220.4

Could you tell me which Relative activity (%) is on file for CC(=O)N[C@H]1[C@H](OC[C@H]2O[C@H](Oc3ccc([N+](=O)[O-])cc3)[C@H](NC(C)=O)[C@@H](O[C@@H]3O[C@H](CO)[C@H](O)[C@H](O)[C@H]3O)[C@H]2O)O[C@H](CO)[C@@H](O)[C@@H]1O [GlcNAcβ1-6(Galβ1-3)GalNAcα-pNp] ? 11.4

Could you tell me which Relative activity (%) is on file for CC(=O)NC1C(OC2C(O)C(CO)OC(Oc3ccc([N+](=O)[O-])cc3)C2NC(C)=O)OC(CO)C(O)C1O (stereo not shown) [GlcNAcβ1-3GalNAcα-pNp] ? 32.3

* * *

- Tested on: NGalNAc-T1 (Homo sapiens, UniProt Q76KP1)
- Measurement description: Requirements of divalent cations in the activity
- Format: biochemical
- Condition context: divalent cation etc. added; MES (pH 6.5)
Readout: Incorporation of radioactivity (A)
I'd appreciate it if you included the unit after the number.

Hello, I am looking for reported Incorporation of radioactivity (A) with NGalNAc-T1 (Homo sapiens, UniProt Q76KP1) for [Cl-].[Cl-].[Mg+2] . Could you help? 256.36 dpm

Hello, I am looking for reported Incorporation of radioactivity (A) with NGalNAc-T1 (Homo sapiens, UniProt Q76KP1) for [Ca+2].[Cl-].[Cl-] . Could you help? 230.78 dpm

Hello, I am looking for reported Incorporation of radioactivity (A) with NGalNAc-T1 (Homo sapiens, UniProt Q76KP1) for [Cl][Cu][Cl] . Could you help? 278.77 dpm

Hello, I am looking for reported Incorporation of radioactivity (A) with NGalNAc-T1 (Homo sapiens, UniProt Q76KP1) for O=C(O)CN(CCN(CC(=O)O)CC(=O)O)CC(=O)O . Could you help? 242.38 dpm

Hello, I am looking for reported Incorporation of radioactivity (A) with NGalNAc-T1 (Homo sapiens, UniProt Q76KP1) for [Cl][Mn][Cl] . Could you help? 519.47 dpm

Hello, I am looking for reported Incorporation of radioactivity (A) with NGalNAc-T1 (Homo sapiens, UniProt Q76KP1) for O=S(=O)([O-])[O-].[Cd+2] . Could you help? 203.39 dpm

Hello, I am looking for reported Incorporation of radioactivity (A) with NGalNAc-T1 (Homo sapiens, UniProt Q76KP1) for [Cl-].[Cl-].[Zn+2] . Could you help? 210.29 dpm
